Numbers sourced from the RepoRT retention time repository (doi:10.1038/s41597-019-0305-1).

- procedure_details: RP, Waters SunFire C18, 50 × 4.6 mm, 3.5 µm, 0.5 mL/min, estimated dead time 1.1 min; A: water + 0.1% formic acid; B: acetonitrile + 0.1% formic acid; gradient (min/%B) 0/5 7/100 8/100
- test_parameters: stereoisomer not certain
observed_property: LC retention time (min)

O=C1NC(c2ccccc2)CC(=O)N2CCCC2C(=O)NC(c2ccccc2)CC(=O)N2CCCC12 (configuration not stated)	5.08
CC1=C(C(=O)O)C(CCCCCCCCCCCCC(C)CO)OC1=O (configuration not stated)	6.93
Cc1cc(O)cc(O)c1C(=O)O	3.41
COC12CC(=O)C(C(C)=O)=C(O)C1(C)c1c(O)c(C)c(O)c(C(C)=O)c1O2 (configuration not stated)	7.08
CCCc1cc(OC)cc(O)c1C(=O)O	5.25

(A) CC1C(=O)OC(CCCCCCCCCC(C)(C)C)C1C(=O)O (configuration not stated)
(B) Cc1cc(O)c(C=O)c2c1C(=O)Oc1c(C)c(O)c3c(c1O2)C(O)OC3=O (configuration not stated)
(C) Cc1cc(O)c(C)c(O)c1
Please list these in order of increasing LC retention time. Thank you! In your reply, arrange the labels in the requested order. C, B, A
(C: 3.25 min, B: 5.3 min, A: 8 min)

----------
- procedure_details: RP, Waters SunFire C18, 50 × 4.6 mm, 3.5 µm, 0.5 mL/min, estimated dead time 1.1 min; A: water + 0.1% formic acid; B: acetonitrile + 0.1% formic acid; gradient (min/%B) 0/5 7/100 8/100
- test_parameters: stereoisomer not certain
observed_property: LC retention time (min)

These recorded examples may help you get a feel for the data.
CCCCCCCCCCC1CC(C(=O)O)C(C)C(=O)O1 (centres undefined)	6.95
CCC(C)C(NC(=O)c1ccccc1)C(=O)OCC(NC(=O)c1ccccc1)C(C)C (centres undefined)	6.17
CCCCCCCCCCCC1OC(=O)C(C)C1C(=O)O (centres undefined)	7.46
CCCCCC(=O)Cc1cc(O)cc(O)c1C(=O)Oc1cc(O)c(C(=O)O)c(CCCCC)c1	6.74

(A) O=C1OC(=C2C(=O)Oc3ccccc32)C(O)=C1c1ccccc1
(B) COC(=O)c1c(C)cc(O)c(C)c1O
(C) COc1cc(O)cc(C)c1C(=O)O
Please list these in order of increasing LC retention time. Thank you! In your reply, arrange the labels in the requested order. C, B, A

(a) Cc1cc(O)c2c(c1)C(=O)c1c(c(O)cc(O)c1-c1c(C)cc(O)c3c1C(=O)c1cc(O)cc(O)c1C3=O)C2=O
(b) CC(=O)OCC1OC(Oc2c(C)c(O)c3c(=O)cc(C)oc3c2C)C(O)C(O)C1O (centres undefined)
// compare measured LC retention time between a and b ; output the lower one Answer = label. b
(b: 4.2 min, a: 6.58 min)

(1) CCCCCCCCCCCCC(C(=O)O)C(C)C(=O)O (centres undefined)
(2) Cc1cc(O)cc2oc3cc(O)c4c(c3c12)COC4=O
// compare measured LC retention time between 1 and 2 ; output the lower one Answer = label. 2
(2: 4.72 min, 1: 7.45 min)

(A) CCCCCc1cc(OC(=O)c2c(O)cc(OC)cc2CCC(=O)CC)cc(O)c1C(=O)O
(B) Cc1cc(O)cc2c1C(=O)Oc1cc3c(c(O)c1O2)C(=O)OC3
Parameter check: reported LC retention time is higher for which label, A or B ? Answer = label. A
(A: 7.31 min, B: 4.58 min)

(1) COc1cc(CCC(C(=O)[O-])[N+](C)(C)C)cc(OC)c1O (centres undefined)
(2) COc1cc(OC)c2c(=O)cc(C)oc2c1C
// compare measured LC retention time between 1 and 2 ; output the lower one Answer = label. 2

(A) COC(=O)c1c(C)cc(OC(=O)c2c(C)cc(OC(=O)c3c(C)cc(OC)cc3O)cc2O)cc1O
(B) Cc1cc(OC(=O)c2c(C)cc(O)cc2O)cc(O)c1C(=O)O
// compare measured LC retention time between A and B ; output the lower one Answer = label. B
(B: 5.3 min, A: 7.74 min)

(a) CC(=O)OC(C)CC1CC(OC(C)=O)C(C)C(O)C(C)C(=O)OC(CC(C)OC(C)=O)CC(OC(C)=O)C(C)C(O)C(C)C(=O)O1 (centres undefined)
(b) COC1=C(O)c2cc3oc(C(C)=O)c(O)c3c(O)c2C(=O)C1=O
// compare measured LC retention time between a and b ; output the lower one Answer = label. b

(P) O=C(NC(Cc1ccccc1)C(=O)O)C(=C1OC(=O)C(c2ccccc2)=C1O)c1ccccc1 (centres undefined)
(Q) COC1=CC(=O)c2c(O)c3c(c(O)c2C1=O)CC(C)OC3=O (centres undefined)
// compare measured LC retention time between P and Q ; output the lower one Answer = label. Q

----------
- procedure_details: RP, Waters SunFire C18, 50 × 4.6 mm, 3.5 µm, 0.5 mL/min, estimated dead time 1.1 min; A: water + 0.1% formic acid; B: acetonitrile + 0.1% formic acid; gradient (min/%B) 0/5 7/100 8/100
- test_parameters: stereoisomer not certain
observed_property: LC retention time (min)

COC(=O)c1c(C)c(C)c(OC(=O)c2c(C)c(C)c(O)c(C=O)c2O)c(C)c1O	7.84
Cc1cc(O)c(C=O)c(O)c1	4.33

(I) COC1=CC(=O)C(=O)c2cc3oc(C)cc(=O)c3c(OC)c21
(II) Cc1cc(OC(=O)c2c(C)cc(OC(=O)c3c(C)cc(O)cc3O)cc2O)cc(O)c1C(=O)O
Parameter check: reported LC retention time is higher for which label, I or II ? Answer = label. II

----------
- procedure_details: RP, Waters SunFire C18, 50 × 4.6 mm, 3.5 µm, 0.5 mL/min, estimated dead time 1.1 min; A: water + 0.1% formic acid; B: acetonitrile + 0.1% formic acid; gradient (min/%B) 0/5 7/100 8/100
- test_parameters: stereoisomer not certain
observed_property: LC retention time (min)

These recorded examples may help you get a feel for the data.
COc1cc(C)c2c(c1C=O)Oc1c(c(C)c(O)c3c1C(O)OC3=O)OC2=O (stereo not given)	4.93
O=C1OC2=C(c3ccccc3)C(=O)OC2=C1c1ccccc1	7.64
COC(=O)C(=C1OC(=O)C(c2ccc(OC)cc2)=C1O)c1ccccc1	6.71
Cc1cc(O)c2c(oc3cc(O)c(C(=O)O)c(C)c32)c1C(=O)O	4.01
CCCCCCCCCCCCCCC(C(=O)O)C(CC(=O)O)C(=O)O (stereo not given)	7.46
CC(=O)C1=C(O)C=C2Oc3c(C)c(O)c(C(C)=O)c(O)c3C2(C)C1=O (stereo not given)	7.45
COc1cc(C)c2c(c1C)Oc1c(cc(O)c(C(=O)O)c1C)OC2=O	6.23
Cc1cc(O)c(C=O)c(O)c1C(=O)OCc1cc(O)c(C=O)c(O)c1C(=O)O	7.26
COC(=O)c1c(C)cc(O)cc1O	4.63
CC(=O)OC1C(C)C(C)OC2(C(C)C3OC(=O)C2(C)C(=O)C3C)C1C (stereo not given)	5.84

(P) CC(=O)C1=C(O)C=C2Oc3c(C(C)=O)c(O)c(C)c(O)c3C2(C)C1=O (stereo not given)
(Q) COc1c(O)c(O)c2c(c1O)C(=O)c1oc(C(C)=O)c(O)c1C2=O
Parameter check: reported LC retention time is higher for which label, P or Q ? Answer = label. P
(P: 7.27 min, Q: 4.5 min)

----------
- procedure_details: RP, Waters SunFire C18, 50 × 4.6 mm, 3.5 µm, 0.5 mL/min, estimated dead time 1.1 min; A: water + 0.1% formic acid; B: acetonitrile + 0.1% formic acid; gradient (min/%B) 0/5 7/100 8/100
- test_parameters: stereoisomer not certain
observed_property: LC retention time (min)

CCCCCC(=O)Cc1c(Oc2cc(OC)cc3cc(CCCCC)oc(=O)c23)c(O)cc(O)c1C(=O)O	7.09
CC(=O)OC1C(Oc2cc3oc(C)cc(=O)c3c(O)c2C)OC(CO)C(O)C1O (stereo not given)	4
CCCCCCCCCCCCCC1OC(=O)C(C)C1C(=O)O (stereo not given)	8

(1) OCC(O)C(O)CO (stereo not given)
(2) CCCCCC(=O)Cc1cc(O)cc2c1C(=O)Oc1cc(O)c(C(=O)O)c(CC(=O)CCCCC)c1O2
Parameter check: reported LC retention time is higher for which label, 1 or 2 ? Answer = label. 2

----------
- procedure_details: RP, Waters SunFire C18, 50 × 4.6 mm, 3.5 µm, 0.5 mL/min, estimated dead time 1.1 min; A: water + 0.1% formic acid; B: acetonitrile + 0.1% formic acid; gradient (min/%B) 0/5 7/100 8/100
- test_parameters: stereoisomer not certain
observed_property: LC retention time (min)

CCOCc1c(O)c(C(=O)O)c(C)c2c1OC(=O)c1c(C)cc(O)c(C=O)c1O2	7.27
COc1cc(C)c(C)c(OC(=O)c2c(C)c(C=O)c(O)c(C=O)c2O)c1C	6.73
Cc1cc(O)c2c(=O)c3c(C)cc(O)cc3oc2c1	6.34

(P) Cc1cc(O)c2c(c1)C(=O)c1c(c(O)cc(O)c1-c1c(O)cc(O)c3c1C(=O)c1cc(C)cc(O)c1C3=O)C2=O
(Q) CC(=O)c1c(O)cc(O)cc1O
Parameter check: reported LC retention time is higher for which label, P or Q ? Answer = label. P
